biological target: Metabotropic glutamate receptor 4 (Rattus norvegicus) (UniProt P31423); assay: rat mGlu4 positive allosteric modulators, SAR follow-up, thallium flux, HEK/GIRK cells (AID 623875); settings: HEK/GIRK rat mGlu4, thallium flux fluorescence, PAM
Sequence (P31423 whole entry, looked up): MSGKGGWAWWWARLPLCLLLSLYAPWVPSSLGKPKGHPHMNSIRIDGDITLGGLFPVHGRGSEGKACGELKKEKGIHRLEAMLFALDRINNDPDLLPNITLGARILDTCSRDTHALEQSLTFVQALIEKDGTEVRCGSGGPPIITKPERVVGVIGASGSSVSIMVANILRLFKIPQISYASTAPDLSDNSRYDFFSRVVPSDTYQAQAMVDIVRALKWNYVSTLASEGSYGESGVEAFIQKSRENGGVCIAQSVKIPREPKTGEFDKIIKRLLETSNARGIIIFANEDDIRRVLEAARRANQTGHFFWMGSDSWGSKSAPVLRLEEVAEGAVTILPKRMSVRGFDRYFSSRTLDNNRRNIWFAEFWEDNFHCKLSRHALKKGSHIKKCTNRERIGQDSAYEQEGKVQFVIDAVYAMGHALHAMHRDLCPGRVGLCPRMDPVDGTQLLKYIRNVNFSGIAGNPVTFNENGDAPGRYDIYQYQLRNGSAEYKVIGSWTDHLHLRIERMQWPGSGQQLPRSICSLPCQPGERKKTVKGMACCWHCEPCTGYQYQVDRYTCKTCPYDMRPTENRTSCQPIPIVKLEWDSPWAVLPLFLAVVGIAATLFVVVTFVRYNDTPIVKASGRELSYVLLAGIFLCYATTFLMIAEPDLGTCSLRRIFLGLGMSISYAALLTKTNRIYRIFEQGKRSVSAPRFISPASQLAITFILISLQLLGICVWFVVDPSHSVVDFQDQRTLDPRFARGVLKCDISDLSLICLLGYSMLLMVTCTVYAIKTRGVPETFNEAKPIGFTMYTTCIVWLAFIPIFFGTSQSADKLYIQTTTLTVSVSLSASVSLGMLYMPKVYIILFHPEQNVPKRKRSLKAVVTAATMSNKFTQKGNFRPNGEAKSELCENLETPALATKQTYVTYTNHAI
EC50: recorded values

The following compounds have reported results that may help.
>>> value_observed("O=C(Nc1ccc2c(c1)C(=O)NC2=O)c1ccccn1")
"2120 nM"
>>> value_observed("Clc1ccc2nc(-c3ccccn3)[nH]c2c1")
"1020 nM"
>>> value_observed("COc1cc2nc(-c3ccccn3)[nH]c2cc1Cl")
"6330 nM"
>>> value_observed("Clc1cccc(Nc2ncnc3cccnc23)c1")
"2580 nM"

Asked: Which EC50 is reported for this compound? CC(C)N(C(=O)c1ccccn1)c1cccc(Cl)c1
Given back: 10300 nM

Asked: Requested read-out: EC50. Entry: O=C(Nc1cccc(Cl)c1)c1ccccn1
Given back: 330 nM

Asked: Quick one: EC50 of Fc1cccc(Nc2noc3cccnc23)c1 ?
Given back: 530 nM

Asked: Entry under review: COc1cc(Nc2noc3cccnc23)ccc1Cl . Reported EC50?
Given back: 1190 nM

Asked: Recorded EC50 of O=C(Nc1ccc2cn[nH]c2c1)c1ccccn1 , please.
Given back: 980 nM
